targetOrTestSystem: Adenosine receptor A3 (Homo sapiens) (UniProt P0DMS8)
assayExplanation: Agonist activity at human recombinant adenosine A3 receptor expressed in CHO cells assessed as inhibition of forskolin-stimulated cAMP production at 10 uM incubated for 30 mins prior to forskolin-stimulation measured after 15 mins by enzyme immunoassay relative to NECA
Assay type: functional, cell-based
Reported Efficacy values are given for each entry in this list.
Response body: numeric value in %, unit text excluded.

Examples from the recorded data:
>  <substanceSmiles>
CNC(=O)[C@@]12C[C@@H]1[C@@H](n1cnc3c(NCc4cccc(Cl)c4)nc(C#Cc4ccc(N)cc4)nc31)[C@H](O)[C@@H]2O

>  <targetOrTestSystem>
Adenosine receptor A3 (Homo sapiens) (UniProt P0DMS8)

>  <Efficacy, %>
76.6

$$$$
>  <substanceSmiles>
CNC(=O)[C@@]12C[C@@H]1[C@@H](n1cnc3c(NC)nc(C#Cc4ccc(-c5ccccc5)cc4)nc31)[C@H](O)[C@@H]2O

>  <targetOrTestSystem>
Adenosine receptor A3 (Homo sapiens) (UniProt P0DMS8)

>  <Efficacy, %>
110

$$$$
>  <substanceSmiles>
CNC(=O)[C@@]12C[C@@H]1[C@@H](n1cnc3c(NCc4cccc(Cl)c4)nc(C#Cc4ccccc4Cl)nc31)[C@H](O)[C@@H]2O

>  <targetOrTestSystem>
Adenosine receptor A3 (Homo sapiens) (UniProt P0DMS8)

>  <Efficacy, %>
103

$$$$

// below: Efficacy requested for another molecule
# input Could you tell me which Efficacy is on file for CNC(=O)[C@@]12C[C@@H]1[C@@H](n1cnc3c(NCc4cccc(Cl)c4)nc(C#Cc4ccc(F)cc4)nc31)[C@H](O)[C@@H]2O ?
# output 102

---

Collected Efficacy values appear next to each entry.
targetOrTestSystem: Adenosine receptor A3 (Homo sapiens) (UniProt P0DMS8)
Sequence (whole entry): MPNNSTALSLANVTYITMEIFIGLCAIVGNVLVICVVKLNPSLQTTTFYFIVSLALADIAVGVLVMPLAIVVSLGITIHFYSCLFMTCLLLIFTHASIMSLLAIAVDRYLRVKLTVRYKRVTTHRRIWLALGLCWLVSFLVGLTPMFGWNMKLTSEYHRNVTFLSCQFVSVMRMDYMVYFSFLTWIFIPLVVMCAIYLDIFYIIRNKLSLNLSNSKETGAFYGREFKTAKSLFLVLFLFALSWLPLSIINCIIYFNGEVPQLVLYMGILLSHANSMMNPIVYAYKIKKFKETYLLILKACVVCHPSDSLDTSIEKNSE
assayExplanation: Agonist activity at human recombinant adenosine A3 receptor expressed in CHO cells assessed as inhibition of forskolin-stimulated cAMP production at 10 uM incubated for 30 mins prior to forskolin-stimulation measured after 15 mins by enzyme immunoassay relative to NECA
Format: functional, cell-based
Numeric only. Scale: %

>  <substanceSmiles>
CNC(=O)[C@@]12C[C@@H]1[C@@H](n1cnc3c(NC)nc(C#Cc4cccc5ccccc45)nc31)[C@H](O)[C@@H]2O

>  <numericResult>
94.6

$$$$
>  <substanceSmiles>
CNC(=O)[C@@]12C[C@@H]1[C@@H](n1cnc3c(NC)nc(C#Cc4cccc(N)c4)nc31)[C@H](O)[C@@H]2O

>  <numericResult>
109

$$$$
>  <substanceSmiles>
CNC(=O)[C@@]12C[C@@H]1[C@@H](n1cnc3c(NC)nc(C#Cc4cccc(F)c4)nc31)[C@H](O)[C@@H]2O

>  <numericResult>
95.8

$$$$

# input Can you look up Efficacy on Adenosine receptor A3 (Homo sapiens) (UniProt P0DMS8) for CNC(=O)[C@@]12C[C@@H]1[C@@H](n1cnc3c(NCc4cccc(Cl)c4)nc(C#Cc4ccc(-c5ccccc5)cc4)nc31)[C@H](O)[C@@H]2O ?
# output 89

# input How about CNC(=O)[C@@]12C[C@@H]1[C@@H](n1cnc3c(NCc4cccc(I)c4)ncnc31)[C@H](O)[C@@H]2O ?
# output 100

# input Similarly, CNC(=O)[C@@]12C[C@@H]1[C@@H](n1cnc3c(NC)nc(C#Cc4ccccc4Cl)nc31)[C@H](O)[C@@H]2O ?
# output 84.2

# input Continue with CCc1ccc(C#Cc2nc(NC)c3ncn([C@H]4[C@H](O)[C@H](O)[C@]5(C(=O)NC)C[C@H]45)c3n2)cc1
# output 110

---

targetOrTestSystem: UniProt:P0DMS8
assayExplanation: Displacement of [3H]I-AB-MECA from human recombinant adenosine A3 receptor expressed in CHO cells after 60 mins by gamma counting
readoutKind: Ki (nM)
Field format: number, assumed nM, no unit text.

# input Could you share which Ki value was measured for CNC(=O)[C@@]12C[C@@H]1[C@@H](n1cnc3c(NCc4cccc(Cl)c4)nc(C#Cc4cc5cccc6ccc7cccc4c7c65)nc31)[C@H](O)[C@@H]2O ?
# output 660

---

targetOrTestSystem: Adenosine receptor A1 (Mus musculus, UniProt Q60612)
readoutKind: pKi
Note on pKi: it is the negative log10 of concentration, concentration in mol/L.

# input Look up pKi: CNC(=O)[C@@]12C[C@@H]1[C@@H](n1cnc3c(NCc4cccc(Cl)c4)nc(C#Cc4ccc(N)cc4)nc31)[C@H](O)[C@@H]2O
# output 6.58

---

targetOrTestSystem: Adenosine receptor A2a (Homo sapiens)
Sequence (P29274 whole entry): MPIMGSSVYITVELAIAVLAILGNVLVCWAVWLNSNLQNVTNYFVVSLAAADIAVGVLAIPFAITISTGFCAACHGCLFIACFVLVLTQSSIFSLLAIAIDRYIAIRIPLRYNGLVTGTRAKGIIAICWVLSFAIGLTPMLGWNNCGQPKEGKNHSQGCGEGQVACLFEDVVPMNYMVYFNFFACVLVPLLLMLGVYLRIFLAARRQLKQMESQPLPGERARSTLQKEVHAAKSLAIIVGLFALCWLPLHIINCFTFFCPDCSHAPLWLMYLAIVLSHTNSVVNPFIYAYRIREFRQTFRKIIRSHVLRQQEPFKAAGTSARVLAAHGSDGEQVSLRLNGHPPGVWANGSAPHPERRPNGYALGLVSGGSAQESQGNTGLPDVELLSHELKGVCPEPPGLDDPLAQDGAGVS
assayExplanation: Displacement of [3H]CGS21680 from human recombinant adenosine A2A receptor expressed in HEK293 cells at 10 uM after 60 mins by liquid scintillation counting
Assay type: cell-based
Lab note: compare inhibition against 40%. Equal or greater, write class 1. Smaller, write class 0.

Illustrative cases are given below, each with its answer.
>  <substanceSmiles>
CNC(=O)[C@@]12C[C@@H]1[C@@H](n1cnc3c(NCc4cccc(Cl)c4)nc(C#Cc4ccc(-c5ccccc5)cc4)nc31)[C@H](O)[C@@H]2O

>  <categoryLabel>
class 0

$$$$
>  <substanceSmiles>
CNC(=O)[C@@]12C[C@@H]1[C@@H](n1cnc3c(NC)nc(C#Cc4cc5ccccc5c5ccccc45)nc31)[C@H](O)[C@@H]2O

>  <categoryLabel>
class 1

$$$$
>  <substanceSmiles>
CNC(=O)[C@@]12C[C@@H]1[C@@H](n1cnc3c(NCc4cccc(Cl)c4)nc(C#Cc4ccc(N)cc4)nc31)[C@H](O)[C@@H]2O

>  <categoryLabel>
class 1

$$$$
>  <substanceSmiles>
CNC(=O)[C@@]12C[C@@H]1[C@@H](n1cnc3c(NC)nc(C#Cc4ccc(-c5ccccc5)cc4)nc31)[C@H](O)[C@@H]2O

>  <categoryLabel>
class 0

$$$$

# input Check if inhibition >= 40% (inclusive). Item: CNC(=O)[C@@]12C[C@@H]1[C@@H](n1cnc3c(NCc4cccc(Cl)c4)nc(C#Cc4cccc(C(=O)O)c4)nc31)[C@H](O)[C@@H]2O
# output class 0

# input Try CNC(=O)[C@@]12C[C@@H]1[C@@H](n1cnc3c(NCc4cccc(Cl)c4)nc(C#Cc4ccccc4Cl)nc31)[C@H](O)[C@@H]2O next.
# output class 1

# input What about this molecule? CNC(=O)[C@@]12C[C@@H]1[C@@H](n1cnc3c(NC)nc(C#Cc4cccc5ccccc45)nc31)[C@H](O)[C@@H]2O
# output class 0

---

Entries and their measured inhibition follow.
targetOrTestSystem: UniProt Q60613
Sequence (Q60613 whole entry): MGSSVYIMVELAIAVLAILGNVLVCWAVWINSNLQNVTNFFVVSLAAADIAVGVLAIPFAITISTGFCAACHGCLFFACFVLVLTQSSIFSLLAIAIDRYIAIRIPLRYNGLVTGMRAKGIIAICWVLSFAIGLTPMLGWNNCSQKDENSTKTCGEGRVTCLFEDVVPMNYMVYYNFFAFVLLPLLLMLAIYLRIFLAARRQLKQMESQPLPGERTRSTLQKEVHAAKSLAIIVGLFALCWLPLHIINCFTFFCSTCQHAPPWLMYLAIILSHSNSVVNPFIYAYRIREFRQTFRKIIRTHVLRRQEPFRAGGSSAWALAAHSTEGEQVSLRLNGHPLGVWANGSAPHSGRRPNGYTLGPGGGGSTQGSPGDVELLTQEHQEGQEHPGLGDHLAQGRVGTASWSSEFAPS
assayExplanation: Displacement of [3H]CGS21680 from mouse adenosine A2A receptor expressed in HEK293 cells at 10 uM after 60 mins by liquid scintillation counting
Expressed in %, but write only the number.

>  <compound>
CNC(=O)[C@@]12C[C@@H]1[C@@H](n1cnc3c(NCc4cccc(Cl)c4)nc(C#Cc4ccc(F)c(F)c4)nc31)[C@H](O)[C@@H]2O (single isomer, unassigned)

>  <readoutUnit>
%

>  <inhibition>
27

$$$$
>  <compound>
CNC(=O)[C@@]12C[C@@H]1[C@@H](n1cnc3c(NCc4cccc(Cl)c4)nc(C#Cc4cccc(Cl)c4)nc31)[C@H](O)[C@@H]2O

>  <readoutUnit>
%

>  <inhibition>
55

$$$$
>  <compound>
CNC(=O)[C@@]12C[C@@H]1[C@@H](n1cnc3c(NC)nc(C#Cc4ccc(F)cc4)nc31)[C@H](O)[C@@H]2O

>  <readoutUnit>
%

>  <inhibition>
0

$$$$
>  <compound>
CNC(=O)[C@@]12C[C@@H]1[C@@H](n1cnc3c(NCc4cccc(Cl)c4)nc(C#Cc4ccc(-c5ccccc5)cc4)nc31)[C@H](O)[C@@H]2O

>  <readoutUnit>
%

>  <inhibition>
6

$$$$

// next entry
# input Which inhibition is reported for this compound? CNC(=O)[C@@]12C[C@@H]1[C@@H](n1cnc3c(NCc4cccc(Cl)c4)nc(C#Cc4ccccc4Cl)nc31)[C@H](O)[C@@H]2O
# output 19

---

targetOrTestSystem: Adenosine receptor A1 (Mus musculus) (UniProt Q60612)
Sequence (Q60612 whole entry): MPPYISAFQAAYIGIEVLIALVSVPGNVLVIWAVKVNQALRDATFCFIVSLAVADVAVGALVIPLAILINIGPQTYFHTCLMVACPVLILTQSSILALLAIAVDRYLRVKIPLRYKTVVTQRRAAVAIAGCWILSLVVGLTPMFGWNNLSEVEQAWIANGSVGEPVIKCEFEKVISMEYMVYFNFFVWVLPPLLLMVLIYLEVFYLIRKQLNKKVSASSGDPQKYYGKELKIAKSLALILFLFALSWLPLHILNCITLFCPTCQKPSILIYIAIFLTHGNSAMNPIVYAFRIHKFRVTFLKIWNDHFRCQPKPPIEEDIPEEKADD
assayExplanation: Displacement of from mouse adenosine A1 receptor expressed in HEK293 cells at 10 uM after 60 mins by liquid scintillation counting
Parameters: reference not given here
readoutKind: inhibition
Output should be the measured figure followed by the unit it is expressed in.

Example compounds with recorded inhibition:
>  <substanceSmiles>
CNC(=O)[C@@]12C[C@@H]1[C@@H](n1cnc3c(NC)nc(C#Cc4ccc(F)cc4)nc31)[C@H](O)[C@@H]2O

>  <targetOrTestSystem>
Adenosine receptor A1 (Mus musculus) (UniProt Q60612)

>  <inhibition>
29%

$$$$
>  <substanceSmiles>
CNC(=O)[C@@]12C[C@@H]1[C@@H](n1cnc3c(NCc4cccc(Cl)c4)nc(C#Cc4ccccc4Cl)nc31)[C@H](O)[C@@H]2O

>  <targetOrTestSystem>
Adenosine receptor A1 (Mus musculus) (UniProt Q60612)

>  <inhibition>
51%

$$$$
>  <substanceSmiles>
CNC(=O)[C@@]12C[C@@H]1[C@@H](n1cnc3c(NCc4cccc(Cl)c4)nc(C#Cc4ccc(F)cc4)nc31)[C@H](O)[C@@H]2O

>  <targetOrTestSystem>
Adenosine receptor A1 (Mus musculus) (UniProt Q60612)

>  <inhibition>
65%

$$$$

Alright, here's another compound for you.
# input What value of inhibition has been reported for the following compound? CNC(=O)[C@@]12C[C@@H]1[C@@H](n1cnc3c(NCc4cccc(Cl)c4)nc(C#Cc4ccc(-c5ccccc5)cc4)nc31)[C@H](O)[C@@H]2O
# output 41%
